B1: TPR 5TU (parent)
chain: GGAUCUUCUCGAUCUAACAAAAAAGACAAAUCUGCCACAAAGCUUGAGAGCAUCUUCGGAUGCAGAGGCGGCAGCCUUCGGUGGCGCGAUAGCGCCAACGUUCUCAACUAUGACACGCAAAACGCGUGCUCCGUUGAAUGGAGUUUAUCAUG

variants of: B1; assay: polymerase ribozyme fitness, log enrichment relative to wild type (log ratio); higher = more active; in vitro selection for triplet polymerase activity
Variants at the floor of the assay were thinned out.
// reported polymerase ribozyme fitness (log ratio) per item

>>> print(df.to_string())
                   variant_key  result
0             A47C G141C U148G  ≤ -4.2
1  A47C G83A C118U G133C U148C  ≤ -4.2

Input line: Could you share which polymerase ribozyme fitness (log ratio) value was measured for A29U G50C A52C A64C U77C G92C G94A C95A A115C U139G ?
Output line: ≤ -4.2

Input line: Could you share which polymerase ribozyme fitness (log ratio) value was measured for C38U A49C A60C U82G G83A ?
Output line: ≤ -4.2

Input line: Could you share which polymerase ribozyme fitness (log ratio) value was measured for U82G A97G A98G C118A A119C G140C ?
Output line: ≤ -4.2

Input line: Could you share which polymerase ribozyme fitness (log ratio) value was measured for A39C C87U G94U U101C A147U ?
Output line: ≤ -4.2

Input line: Could you share which polymerase ribozyme fitness (log ratio) value was measured for U78G C85G G140A ?
Output line: ≤ -4.2

Input line: Could you share which polymerase ribozyme fitness (log ratio) value was measured for U127C U139C U151G ?
Output line: ≤ -4.2

Input line: Could you share which polymerase ribozyme fitness (log ratio) value was measured for C5G A21C A29U U82A G94A G136C U151C ?
Output line: ≤ -4.2

Input line: Could you share which polymerase ribozyme fitness (log ratio) value was measured for U7C G50U C87A U90A A106C ?
Output line: ≤ -4.2

These entries and their values trace back to the RNAGym collection of RNA variant scans (doi:10.1073/pnas.2313332121).
